Recorded values, source patent US20220339143A1.

assay: Single dose PK in healthy subjects (Cohorts 1, 2, S1 and S2), plasma; type: in vivo, human; settings: human, plasma, intravenous, 112 mg; 0.5 hr; read-out: Plasma concentration, Q3

compound smiles	measure unit	concentration at 0.5 h
COC(=O)N1CCC[C@H](NS(C)(=O)=O)[C@@H]1CO[C@H]1CC[C@@H](c2ccccc2)CC1	ng/mL	149

###

assay: Single dose PK in patients with narcolepsy (Cohorts 5, 6 and 7), plasma; assay type: in vivo, human; conditions: human, plasma, iv, 44.8 mg; 2 hr; NT1, single 9 h IV infusion; read-out: Plasma concentration, Median

compound smiles	concentration at 2 h, ng/mL
COC(=O)N1CCC[C@H](NS(C)(=O)=O)[C@@H]1CO[C@H]1CC[C@@H](c2ccccc2)CC1	76.3
